# experimental-target: human Cot catalytic domain (30-397 amino acids) (Homo sapiens, UniProt P41279)
# Construct: Purified recombinant human Cot catalytic domain (30-397 amino acids) was purchased from Cama Biosciences; purchased Cama Biosciences (so in the source)
# Sequence (P41279 30-397): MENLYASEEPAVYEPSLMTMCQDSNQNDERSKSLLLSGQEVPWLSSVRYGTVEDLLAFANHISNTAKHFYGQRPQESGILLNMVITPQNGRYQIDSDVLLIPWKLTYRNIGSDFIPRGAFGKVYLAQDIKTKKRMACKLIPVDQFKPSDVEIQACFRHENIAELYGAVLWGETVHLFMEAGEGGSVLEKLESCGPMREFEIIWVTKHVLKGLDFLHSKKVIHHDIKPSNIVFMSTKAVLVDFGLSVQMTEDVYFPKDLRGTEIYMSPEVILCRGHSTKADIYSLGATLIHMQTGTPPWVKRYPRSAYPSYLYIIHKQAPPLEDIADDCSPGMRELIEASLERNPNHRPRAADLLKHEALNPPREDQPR
# assay-text: High Throughput Cot Biochemical Assay (KinEASE TR-FRET)
# condition-notes: Cot KinEASE TR-FRET, 400 μM ATP; read-out: IC50 HTRF
pIC50: −log10 of the molar value.
assay-metric: pIC50

Check out these entries, answers already filled in.
molecule | assay-metric | quantitative-readout
Cc1cc(C#N)ccc1[C@H](Nc1cc(Cl)c2ncc(C#N)c(NCC(C)(C)C)c2c1)c1cn(C2(C(F)F)CC2)nn1 | pIC50 | 7.64
N#Cc1cnc2c(Cl)cc(NC(c3ccc(F)cc3)c3cccnc3)cc2c1Nc1ccc(F)c(Cl)c1 (stereo not shown) | pIC50 | 5.40
Cc1c(-c2ccccn2)cccc1[C@H](Nc1cc(C#N)c2ncc(C#N)c(NCC(C)(C)C)c2c1)c1cn(C2(C(F)(F)F)CC2)nn1 | pIC50 | 7.96
[2H][C@](Nc1cc(S(C)(=O)=O)c2ncc(C#N)c(NCC(C)(C)C)c2c1)(c1ccc(F)cc1)c1cn(C2CC2)nn1 | pIC50 | 7.57

(a) [2H][C@](Nc1cc(Cl)c2ncc(C#N)c(N[C@H](CCOC)c3ccccc3)c2c1)(c1ccc(F)cc1)c1cn(C2CC2)nn1
(b) CC(C)(C)CNc1c(C#N)cnc2c(C#N)cc(N[C@@H](c3ccc(F)cc3)c3cn(C4(c5cnccn5)CC4)nn3)cc12
(c) [2H][C@](Nc1cc(C#N)c2ncc(C#N)c(NCC(C)(C)C)c2c1)(c1ccc(F)cc1)c1cn(-c2cccnc2)nn1
(d) [2H][C@@](Nc1cc(Br)c2ncc(C#N)c(N[C@H](CCC#N)c3ccccc3)c2c1)(c1cn(C2CC2)nn1)c1ccccc1Cl
(e) CC(C)(C)CNc1c(C#N)cnc2c(Cl)cc(N[C@@H](c3ccc(F)cc3)c3cn(C4(C(F)(F)F)CCC4)nn3)cc12
Request: Arrange the 5 entries by pIC50 so the values rise. Write out the labels following the order that was asked for.
Result: b, e, c, a, d

(1) CC1(C)CNCCC1n1cc(C(Nc2cc(Cl)c3ncc(C#N)c(Nc4ccc(F)c(Cl)c4)c3c2)c2ccc(F)cc2)nn1 (stereo not shown)
(2) [2H][C@](Nc1cc(Cl)c2ncc(C#N)c(NCC(C)(C)C)c2c1)(c1cccc(C#N)c1)c1cn(C(F)(F)C(N)=O)nn1
(3) CCN1CCC(n2cc(C(Nc3cc(Cl)c4ncc(C#N)c(Nc5ccc(F)c(Cl)c5)c4c3)c3ccc(F)c(F)c3)nn2)CC1 (stereo not shown)
Request: Put the items in order so that reported pIC50 rises from first to last. List the labels, following the order given in the request.
Result: 1, 3, 2
